Entries and their % inhibition T4 130' 5 values follow.
# Test Target: bacteriophage T4 DNA polymerase (Enterobacteria phage T4)
# Construct: made in house
# Sequence (P04415 whole entry): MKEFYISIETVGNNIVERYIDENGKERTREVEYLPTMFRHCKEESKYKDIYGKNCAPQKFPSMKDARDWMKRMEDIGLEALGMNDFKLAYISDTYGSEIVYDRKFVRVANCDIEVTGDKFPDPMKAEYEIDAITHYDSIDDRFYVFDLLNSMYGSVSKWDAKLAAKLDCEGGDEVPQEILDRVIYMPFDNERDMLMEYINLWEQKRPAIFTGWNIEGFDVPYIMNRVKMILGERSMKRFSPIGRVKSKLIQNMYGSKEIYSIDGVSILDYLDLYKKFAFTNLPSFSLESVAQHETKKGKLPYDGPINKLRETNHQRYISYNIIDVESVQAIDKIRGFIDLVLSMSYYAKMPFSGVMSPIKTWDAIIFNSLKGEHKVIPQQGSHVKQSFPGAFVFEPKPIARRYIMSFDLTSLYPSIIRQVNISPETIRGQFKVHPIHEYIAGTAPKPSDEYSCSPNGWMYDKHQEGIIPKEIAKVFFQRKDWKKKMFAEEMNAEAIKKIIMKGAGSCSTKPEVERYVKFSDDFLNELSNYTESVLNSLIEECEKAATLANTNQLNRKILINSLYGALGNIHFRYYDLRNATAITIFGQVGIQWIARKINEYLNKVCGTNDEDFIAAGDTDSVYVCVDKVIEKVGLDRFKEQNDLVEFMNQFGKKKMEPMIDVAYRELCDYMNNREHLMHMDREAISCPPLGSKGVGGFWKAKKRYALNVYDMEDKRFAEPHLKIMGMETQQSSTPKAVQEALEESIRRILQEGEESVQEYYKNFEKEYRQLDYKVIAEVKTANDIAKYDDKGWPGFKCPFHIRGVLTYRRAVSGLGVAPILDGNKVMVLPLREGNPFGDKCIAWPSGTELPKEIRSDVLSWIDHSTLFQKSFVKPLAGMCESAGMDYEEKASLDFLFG
# Run Description: Counter-screen against bacteriophage T4 DNA polymerase
# Assay type: biochemical
# Measurement Parameters: DRC-1; read at 130'; concentration 5
# Description: Codon-optimized, exonuclease-deficient Pf-apPOL was overexpressed in E. coli BL21 (DE3) and purified as described. The protein was dialysed against two, 1-liter changes of 20 mM Tris-HCl (pH 8.0), 400 mM NaCl, and 20% glycerol. […] Each compound was tested in a dose-response format to determine IC50 values. […] T4 DNA polymerase can be produced in large quantities, and is in the same family (B-family) as the replicative human DNA polymerases (α, δ, and ε)[20].
Assay Metric: % inhibition T4 130' 5 (%)

In [3]: df
Out[3]:
                                   compound  observed_measurement
0               Nc1cc(Oc2ccc(O)c(N)c2)ccc1O                 9.975
1  Cc1ccc(N2CCC(NC(=O)Cc3cccs3)C2=O)cc1C (centres unmarked)                -0.359
2  O=C1CSC2=NC3=C(CCc4ccccc43)C(c3cccs3)N12 (centres unmarked)                 7.713
3  O=C(c1ccccc1)N1CCc2c(nc3cc(-c4ccccc4)[nH]n3c2=O)C1              -10.6574
4   COc1ccc(/C=C/c2cc(C(=O)O)c3ccccc3n2)cc1               -1.2832
5       Cc1nc(C)c2c(n1)N(CC1CCCCC1)C(=O)CC2              -10.3586
6  COc1ccccc1CC(=O)N1CCc2c(nc3cc(-c4ccccc4Cl)[nH]n3c2=O)C1                    -6
7  COc1ccc(C2CC(c3ccc(Cl)cc3Cl)Nc3nc(N)nn32)cc1OC (centres unmarked)                -0.436

----------
Reported % inhibition apPOL 180' values are given for each entry in this list.
# Test Target: P. falciparum apicoplast DNA polymerase (Pf-apPOL) (Plasmodium falciparum, UniProt Q8ILY1)
# Sequence (Q8ILY1 entry or part of it): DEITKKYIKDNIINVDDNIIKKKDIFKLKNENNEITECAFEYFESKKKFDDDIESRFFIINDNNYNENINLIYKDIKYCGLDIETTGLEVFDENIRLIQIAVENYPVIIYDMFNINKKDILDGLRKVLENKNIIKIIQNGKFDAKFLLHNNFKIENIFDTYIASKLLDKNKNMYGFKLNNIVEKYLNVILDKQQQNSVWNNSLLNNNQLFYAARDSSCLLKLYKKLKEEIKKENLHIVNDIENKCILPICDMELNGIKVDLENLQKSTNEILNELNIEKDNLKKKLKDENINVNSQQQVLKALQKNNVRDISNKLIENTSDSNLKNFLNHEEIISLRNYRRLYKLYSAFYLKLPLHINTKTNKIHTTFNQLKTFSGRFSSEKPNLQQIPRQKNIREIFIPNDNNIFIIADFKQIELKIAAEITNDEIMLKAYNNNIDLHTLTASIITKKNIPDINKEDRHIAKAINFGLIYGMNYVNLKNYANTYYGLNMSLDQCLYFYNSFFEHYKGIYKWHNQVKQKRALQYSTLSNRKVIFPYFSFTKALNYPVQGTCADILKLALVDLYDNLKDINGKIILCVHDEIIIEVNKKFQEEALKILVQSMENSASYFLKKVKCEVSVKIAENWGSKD
# Run Description: Fluorescence-based high-throughput DNA polymerase assay (molecular beacon), primary screen and dose-response;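 further: test concentration in µM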
# Type: biochemical
# Measurement Parameters: conc 40 (unit not given); 180'; DRC-2
Assay Metric: % inhibition apPOL 180' (%)

                                   compound                               test_target  units_text  observed_measurement
0  CC1=NNC(=O)C1Oc1ccc(Cl)cc1Cl (centres unmarked)  P. falciparum apicoplast DNA polymerase (Pf-apPOL) (Plasmodium falciparum, UniProt Q8ILY1)           %                    26
1       CN1CC(=Cc2ccco2)C(=O)C(=Cc2ccco2)C1  P. falciparum apicoplast DNA polymerase (Pf-apPOL) (Plasmodium falciparum, UniProt Q8ILY1)           %                    42
2  O=C(O)CC1SC(c2ccc3c(c2)OCO3)=NC1=O (centres unmarked)  P. falciparum apicoplast DNA polymerase (Pf-apPOL) (Plasmodium falciparum, UniProt Q8ILY1)           %                    23
3     O=[N+]([O-])c1cc2c(cc1CN1CCCCCC1)OCO2  P. falciparum apicoplast DNA polymerase (Pf-apPOL) (Plasmodium falciparum, UniProt Q8ILY1)           %                    22
4  CSCCC(C)(O)CNC(=O)C1CC1 (centres unmarked)  P. falciparum apicoplast DNA polymerase (Pf-apPOL) (Plasmodium falciparum, UniProt Q8ILY1)           %                    32

Sourced from paper PMC9090415
